# Test system: Saccharomyces cerevisiae
# run-description: protein stability index of tFT-peptide fusion (C-terminal peptide) (PSI (0-1 scale)); higher = more stable (slower turnover);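 also: PSI is a weighted mean of sequencing reads over stability bins, variants kept only with over 10 reads, mCherry proximal and sfGFP distal, peptide attached via GGGS linker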
# applied-conditions: genetic background: wild type; temperature: 30 C
Each entry gets class 0 if its protein stability index stays under 0.6, and class 1 if its protein stability index is 0.6 or above.

Ask: Determine whether this sequence has protein stability index no lower than 0.6: "FHFLFLFSLVSV"
Result: class 0

Ask: Determine whether this sequence has protein stability index no lower than 0.6: "GGGVGGAVVLFW"
Result: class 0

Ask: Determine whether this sequence has protein stability index no lower than 0.6: "SYVVVFVIFCVG"
Result: class 0

Ask: Determine whether this sequence has protein stability index no lower than 0.6: "LKPKLDFHIWDV"
Result: class 1

Ask: Determine whether this sequence has protein stability index no lower than 0.6: "YLSFDKSLLSQI"
Result: class 1

Ask: Determine whether this sequence has protein stability index no lower than 0.6: "RRATHTRDINNL"
Result: class 1

Ask: Determine whether this sequence has protein stability index no lower than 0.6: "EWVLRTLVDTNW"
Result: class 1

Ask: Determine whether this sequence has protein stability index no lower than 0.6: "GCGVWRVLRVLR"
Result: class 1

* * *

# Test system: Saccharomyces cerevisiae
# run-description: protein stability index of tFT-peptide fusion (C-terminal peptide) (PSI (0-1 scale)); higher = more stable (slower turnover)
# applied-conditions: genetic background: wild type; temperature: 37 C
Kindly supply the reported protein stability index values for the records listed here.
I'd appreciate a reply containing only the number, no unit.

Sample "NKYSMQNVLKSF" ; protein stability index observed: 0.552

Sample "PRLRPQTVAFLS" ; protein stability index observed: 0.518

Sample "PPPPLATTSAPL" ; protein stability index observed: 0.692

Sample "QPSSFDMLGLLL" ; protein stability index observed: 0.709

Sample "GAICCFCCYLVF" ; protein stability index observed: 0.597

Sample "GFPFLCSFLLAS" ; protein stability index observed: 0.453

Sample "KIHILVVQIATR" ; protein stability index observed: 0.114

Sample "FQLGLVFCVCSG" ; protein stability index observed: 0.453

Sample "VLVVASLRFSFF" ; protein stability index observed: 0.38

Sample "IHCLSIVVHGLS" ; protein stability index observed: 0.563

Sample "FCRLTFCFFAFL" ; protein stability index observed: 0.559

Sample "LPLVFYCFLLHS" ; protein stability index observed: 0.509

Sample "VAALLCWLHLYA" ; protein stability index observed: 0.563

Sample "GLRFFVSSLLCR" ; protein stability index observed: 0.555

Sample "KKNITRLKNKMT" ; protein stability index observed: 0.392

Sample "AFTFLLCWLFGV" ; protein stability index observed: 0.585

Sample "LFFLSASFFFFF" ; protein stability index observed: 0.356

Sample "IFSFRWVLPFWL" ; protein stability index observed: 0.424

Sample "FLFLSPLALHVS" ; protein stability index observed: 0.256

Sample "GILPIYNIISRL" ; protein stability index observed: 0.84

Sample "VFVLFLRAVACR" ; protein stability index observed: 0.0342

Sample "WVLFRLPYQFFS" ; protein stability index observed: 0.633

Sample "SSRRVVLPLLVA" ; protein stability index observed: 0.131

* * *

# System: Saccharomyces cerevisiae
# run-description: protein stability index of tFT-peptide fusion (C-terminal peptide) (PSI (0-1 scale)); higher = more stable (slower turnover)
# applied-conditions: genetic background: wild type; temperature: 30 C
experimental-endpoint: protein stability index
I'd appreciate a reply containing only the number, no unit.

Sample "GDSSSCSSYVYL" ; protein stability index observed: 0.651

Sample "PPRLSPAPPASP" ; protein stability index observed: 0.605

Sample "AAVSSDASVLRF" ; protein stability index observed: 0.628

Sample "TPPLPRFHAPQP" ; protein stability index observed: 0.665

Sample "TRSPTVAMRPKE" ; protein stability index observed: 0.676

Sample "CTGISVFYLFGD" ; protein stability index observed: 0.66

Sample "GREVRGLRVPGS" ; protein stability index observed: 0.653

Sample "RSRATIGSQILS" ; protein stability index observed: 0.688

Sample "GGGGGGSAVEGG" ; protein stability index observed: 0.674

Sample "TPSPTRCPTPTR" ; protein stability index observed: 0.6

Sample "SPSPPPPPPPPL" ; protein stability index observed: 0.688

Sample "CFASTFVSPILH" ; protein stability index observed: 0.694

Sample "SKRCNNNRNTSN" ; protein stability index observed: 0.69

Sample "VGWRCWVGSVGL" ; protein stability index observed: 0.669

Sample "GKKKKKERKHGA" ; protein stability index observed: 0.735

Sample "FSLPFLFCRPLS" ; protein stability index observed: 0.628

Sample "GGGRGRAGENTR" ; protein stability index observed: 0.681

Sample "PPPPPLPHPVPP" ; protein stability index observed: 0.621

Sample "PPPPPLPPPTPP" ; protein stability index observed: 0.568

Sample "RLGKRKKPYTQG" ; protein stability index observed: 0.756

Sample "QTGGPDPSGPPK" ; protein stability index observed: 0.693

Sample "DGKTKKKTRSLR" ; protein stability index observed: 0.652

Sample "KRKENKKNKEKK" ; protein stability index observed: 0.669

Sample "KQRGTRGNKANE" ; protein stability index observed: 0.623
